These data points were gathered from ChEMBL document CHEMBL5325390.

test system: metallo-β-lactamase IMP-1 (Pseudomonas aeruginosa); experiment: Inhibition of IMP1 (unknown origin) expressed in Escherichia coli BL21(DE3) assessed as substrate hydrolysis at 100 uM by UV-Vis spectrophotometric analysis relative to control
PROPERTY_MEASURED: inhibition

Example results:
{"COMPOUND": "O=C(NCc1ccccc1)c1ccccc1CCn1c(-c2ccccc2)n[nH]c1=S", "EXPERIMENTAL_SYSTEM": "metallo-β-lactamase IMP-1 (Pseudomonas aeruginosa)", "inhibition": "45%"}
{"COMPOUND": "O=C1OC(Cn2c(-c3cccc(-c4ccccc4)c3)n[nH]c2=S)c2ccccc21 (centres undefined)", "EXPERIMENTAL_SYSTEM": "metallo-β-lactamase IMP-1 (Pseudomonas aeruginosa)", "inhibition": "< 30%"}
{"COMPOUND": "S=c1[nH]nc(Cc2ccc3ccccc3c2)n1-c1ccc(OCc2ccccc2)cc1", "EXPERIMENTAL_SYSTEM": "metallo-β-lactamase IMP-1 (Pseudomonas aeruginosa)", "inhibition": "< 30%"}
{"COMPOUND": "Cc1ccccc1-c1n[nH]c(=S)n1CCc1ccc(OCc2ccccc2)cc1", "EXPERIMENTAL_SYSTEM": "metallo-β-lactamase IMP-1 (Pseudomonas aeruginosa)", "inhibition": "< 30%"}
{"COMPOUND": "S=c1[nH]nc(Cc2ccccc2)n1CCc1ccccc1", "EXPERIMENTAL_SYSTEM": "metallo-β-lactamase IMP-1 (Pseudomonas aeruginosa)", "inhibition": "< 30%"}

Exercise: May I ask what inhibition has been recorded for S=c1[nH]nc(Cc2ccccc2)n1Cc1ccccc1 ?
Solution: 57%

====

assay: Binding affinity to VIM-4 (unknown origin) expressed in Escherichia coli BL21(DE3) assessed as inhibition constant by measuring rate of substrate hydrolysis by UV-Vis spectrophotometric analysis
# Ki per entry
Report as a plain number; the unit nM is understood.

Example results:
{"MOLECULE": "Oc1ccc(/C=N/n2c(-c3ccccc3-c3ccccc3)n[nH]c2=S)c(O)c1", "MEASURE_UNIT": "nM", "Ki": 9000}
{"MOLECULE": "Oc1ccc(CCn2c(-c3ccccc3)n[nH]c2=S)c(O)c1", "MEASURE_UNIT": "nM", "Ki": 4100}
{"MOLECULE": "O=C(O)c1ccc(Cn2c(-c3ccccc3)n[nH]c2=S)cc1", "MEASURE_UNIT": "nM", "Ki": 1100}
{"MOLECULE": "COc1ccc(O)c(-c2n[nH]c(=S)n2[C@@H]2C[C@H]2c2ccccc2)c1", "MEASURE_UNIT": "nM", "Ki": 2500}
{"MOLECULE": "O=C1OC(Cn2c(-c3ccccc3)n[nH]c2=S)c2ccccc21 (centres undefined)", "MEASURE_UNIT": "nM", "Ki": 7800}
{"MOLECULE": "S=c1[nH]nc(-c2ccccc2)n1CCc1ccccc1", "MEASURE_UNIT": "nM", "Ki": 2100}

Exercise: May I ask what Ki has been recorded for S=c1[nH]nc(-c2ccccc2)n1CCCc1ccccc1 ?
Solution: 900

Exercise: May I ask what Ki has been recorded for Oc1cccc(CCn2c(-c3cccc(-c4ccccc4)c3)n[nH]c2=S)c1O ?
Solution: 800

Exercise: May I ask what Ki has been recorded for O=C(O)c1ccccc1/C=N/n1c(-c2cccc(-c3ccccc3)c2)n[nH]c1=S ?
Solution: 40

Exercise: May I ask what Ki has been recorded for Oc1ccc(CCn2c(-c3ccccc3)n[nH]c2=S)cc1 ?
Solution: 2300

Exercise: May I ask what Ki has been recorded for Oc1ccc(CCn2c(-c3cccc(-c4ccccc4)c3)n[nH]c2=S)cc1O ?
Solution: 680

Exercise: May I ask what Ki has been recorded for O=C(O)c1cccc(Cn2c(-c3ccccc3)n[nH]c2=S)c1 ?
Solution: 400
